This listing pairs compounds with measured Activity.
biological target: Adenosine receptor A2a (Homo sapiens, UniProt P29274); experiment: Displacement of [3H]ZM-241,385 from human N-terminal FLAG-tagged adenosine A2A receptor expressed in HEK293 cell membrane assessed as radioligand binding at 10 uM by microbeta scintillation counting method relative to control; format: cell membranes
Sequence (P29274 whole entry): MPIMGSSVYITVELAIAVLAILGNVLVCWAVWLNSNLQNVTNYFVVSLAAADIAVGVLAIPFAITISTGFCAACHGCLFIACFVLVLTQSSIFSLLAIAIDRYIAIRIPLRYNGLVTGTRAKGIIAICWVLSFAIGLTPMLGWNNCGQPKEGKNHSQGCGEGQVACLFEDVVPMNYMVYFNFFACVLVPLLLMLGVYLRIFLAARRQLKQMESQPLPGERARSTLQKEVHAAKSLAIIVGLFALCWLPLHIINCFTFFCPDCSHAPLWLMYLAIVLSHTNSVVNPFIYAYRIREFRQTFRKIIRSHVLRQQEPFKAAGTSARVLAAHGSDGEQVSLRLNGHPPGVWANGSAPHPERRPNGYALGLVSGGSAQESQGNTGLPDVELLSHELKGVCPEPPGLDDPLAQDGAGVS
// note: answer is a bare numeric in %

{"compound": "Cc1ccc(S(=O)(=O)NCCNc2nc(N)c(C(=O)NC(=N)N)nc2Cl)cc1", "measurementUnits": "%", "Activity": 85}
{"compound": "CCCCOc1ccc(CCNc2nc(N)c(C(=O)N=C(N)N)nc2Cl)cc1", "measurementUnits": "%", "Activity": 66}
{"compound": "NC(N)=NC(=O)c1nc(Cl)c(NCCc2ccc(O)cc2)nc1N", "measurementUnits": "%", "Activity": 72}
{"compound": "COc1cccc(CCNc2nc(N)c(C(=O)N=C(N)N)nc2Cl)c1.Cl", "measurementUnits": "%", "Activity": 41}
{"compound": "N=C(N)NC(=O)c1nc(Cl)c(NCc2ccncc2)nc1N", "measurementUnits": "%", "Activity": 87}

Input NC(N)=NC(=O)c1nc(Cl)c(NCCc2ccc(Cl)cc2)nc1N . Output Activity: 92

Input N=C(N)NC(=O)c1nc(Cl)c(NCCNCc2ccccc2)nc1N . Output Activity: 90

Input N=C(N)NC(=O)c1nc(Cl)c(NCCc2nnn[nH]2)nc1N . Output Activity: 99

Input N=C(N)NC(=O)c1nc(Cl)c(NCCc2ccccc2)nc1N . Output Activity: 54

Input NC(N)=NC(=O)c1nc(Cl)c(NCCc2ccc(Cl)c(Cl)c2)nc1N . Output Activity: 82

Input N=C(N)NC(=O)c1nc(Cl)c(N2CCCCCC2)nc1N [N,N-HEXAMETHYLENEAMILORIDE] . Output Activity: 30

Input NC(N)=NC(=O)c1nc(Cl)c(NCCc2ccc([N+](=O)[O-])cc2)nc1N . Output Activity: 68

Input NC(N)=NC(=O)c1nc(Cl)c(NCCc2ccc(OCc3ccccc3)cc2)nc1N . Output Activity: 75

Input Cl.NC(N)=NC(=O)c1nc(Cl)c(NCCc2ccc3c(c2)OCO3)nc1N . Output Activity: 35

Input N=C(N)NC(=O)c1nc(Cl)c(NCc2ccccc2)nc1N . Output Activity: 77

Input NC(N)=NC(=O)c1nc(Cl)c(NCCc2ccc(OC(F)(F)F)cc2)nc1N . Output Activity: 63

Input NC(N)=NC(=O)c1nc(Cl)c(NC2Cc3ccccc3C2)nc1N . Output Activity: 68

Input N=C(N)NC(=O)c1nc(Cl)c(N)nc1N . Output Activity: 71

Input N=C(N)NC(=O)c1nc(Cl)c(NCCSCc2ccccc2)nc1N . Output Activity: 84

Input COc1ccc(CCNc2nc(N)c(C(=O)N=C(N)N)nc2Cl)cc1OC . Output Activity: 51

Input N=C(N)NC(=O)c1nc(Cl)c(NCCC(=O)O)nc1N . Output Activity: 96

Input NC(N)=NC(=O)c1nc(Cl)c(NCCc2ccc(Br)cc2)nc1N . Output Activity: 67

* * *

target: Adenosine A2 receptor (Homo sapiens, UniProt P29275+P29274, W246A); assay: Displacement of [3H]ZM-241,385 from human N-terminal FLAG-tagged adenosine A2A receptor W246A 6.48 mutant expressed in HEK293 cell membrane by microbeta scintillation counting method; assay type: cell membranes
quantity: IC50 (nM)
// note: answer is a bare numeric in nM

{"compound": "CCOc1ccc(CCNc2nc(N)c(C(=O)N=C(N)N)nc2Cl)cc1.O=C(O)C(F)(F)F", "IC50, nM": 50}
{"compound": "COc1ccc(CCNc2nc(N)c(C(=O)N=C(N)N)nc2Cl)cc1.Cl", "IC50, nM": 120}
{"compound": "Cl.NC(N)=NC(=O)c1nc(Cl)c(NCCc2ccc3c(c2)OCO3)nc1N", "IC50, nM": 70}

Input N=C(N)NC(=O)c1nc(Cl)c(N2CCCCCC2)nc1N [N,N-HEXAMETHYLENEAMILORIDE] . Output IC50: 270

Input COc1cccc(CCNc2nc(N)c(C(=O)N=C(N)N)nc2Cl)c1.Cl . Output IC50: 250

This collection of values is drawn from ChEMBL document CHEMBL3817744.
